- target-under-test: T1, CRBN, Q96SW2;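 note: pooled lentiviral library of zinc finger degron-EGFP fusions in mCherry-positive Jurkat cells, FACS-sorted after compound exposure, with degron abundance counted by next-generation sequencing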
- T1 chain: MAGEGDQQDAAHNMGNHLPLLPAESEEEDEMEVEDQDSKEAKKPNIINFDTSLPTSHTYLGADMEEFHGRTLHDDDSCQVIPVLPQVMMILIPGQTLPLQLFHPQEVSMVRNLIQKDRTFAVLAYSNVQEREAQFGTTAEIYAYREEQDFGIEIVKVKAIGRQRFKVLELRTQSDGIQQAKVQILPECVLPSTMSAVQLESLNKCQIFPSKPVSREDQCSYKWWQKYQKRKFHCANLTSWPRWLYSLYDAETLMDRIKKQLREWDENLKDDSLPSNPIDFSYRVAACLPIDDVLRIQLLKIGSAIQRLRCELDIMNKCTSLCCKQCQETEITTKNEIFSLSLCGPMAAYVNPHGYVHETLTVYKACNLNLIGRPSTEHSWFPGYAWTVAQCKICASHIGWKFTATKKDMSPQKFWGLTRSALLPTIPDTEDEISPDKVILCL
- protocol-notes: log2 fold change of degron read counts, EGFP-low vs EGFP+ sorted cells (limma voom), compound-induced degradation; higher = more compound-induced degradation of the degron-EGFP fusion; degrons are variants of IKZF1/3 zinc finger 2; compound dose not given here
- conditions-used: Jurkat; 18 h; compound: compound 33 (diphenyl IMiD analogue)
The full ranking holds about 8,300 sequences; the median of “log2 fold change of degron read counts, EGFP-low vs EGFP+ sorted cells (limma voom), compound-induced degradation” is about -1.1, and the highest 2% start at about 3.2. The entries come from a sample that favours the highest values as a whole.
Decide by log2 fold change of degron read counts: equal to or exceeding -2 means 1, less means -1.

Task item: Please indicate if the recorded log2 fold change of degron read counts for FDCDVCGARFTQKGNLLRHIKL [46F_47D_49D_50V_52G_53A_54R_55F_67L_, Q9UKT9] meets or exceeds -2.
Reply: 1

Task item: Decide: log2 fold change of degron read counts of FECDICGAHFTQKGNLLRHIKL [46F_47E_49D_50I_52G_53A_54H_55F_67L_, Q9UKT9] >= -2?
Reply: 1

Task item: Threshold query (log2 fold change of degron read counts >= -2) on FMCDICGAMFTQKGNLLRHIKL [46F_47M_49D_50I_52G_53A_54M_55F_67L_, Q9UKT9]
Reply: 1

Task item: Determine whether measured log2 fold change of degron read counts meets or exceeds -2 for FMCDVCGARFTQKGNLLRHIKL [46F_47M_49D_50V_52G_53A_54R_55F_67L_, Q9UKT9]
Reply: 1

Task item: I'd appreciate it if you could say whether FNCNQCGHKFTQKGNLLRHIKL [46F_47N_49N_50Q_52G_53H_54K_55F_67L_, Q9UKT9] has log2 fold change of degron read counts at least equal to -2.
Reply: -1

Task item: Kindly determine if log2 fold change of degron read counts recorded for FKCPICGRQFTQKGNLLRHIKL [46F_47K_49P_50I_52G_53R_54Q_55F_67L_, Q9UKT9] is above or exactly -2.
Reply: -1

src = the supplement of paper PMC12645437
